assay: Half life (t 1/2) after IV administration at the dose 2/2 (IV/Po/mg/kg); format: ADME, organism-based; details: cercopithecidae, in vivo, 2 mg/kg
MEASUREMENT_KIND: half-life (h)
Number in h, nothing else.

Endpoint output: half-life of CCO/N=C(\c1ccc(Br)cc1)C1CCN(C2(C)CCN(C(=O)c3c(C)cc[n+]([O-])c3C)CC2)CC1 . Value?
6

---

tested on: Rattus norvegicus; assay: Area under curve value at 0-6 hr in rat pharmacokinetic screening after 10 mg/kg peroral dose; type: ADME, organism-based; set-up: time < 6 hr, dose 10 mg/kg, route oral; settings: in vivo, po
AUC listing for selected compounds.
Give the figure together with its unit, number first.

Some entries whose results are on file:
{"COMPOUND": "CCO/N=C(\\c1ccc(Br)cc1)C1CCN(C2(C)CCN(C(=O)c3c(C)cccc3C)CC2)CC1", "AUC": "1000 ng·h/mL"}
{"COMPOUND": "CCO/N=C(\\c1ccc(S(C)(=O)=O)cc1)C1CCN(C2(C)CCN(C(=O)c3c(C)cc[n+]([O-])c3C)CC2)CC1", "AUC": "0 ng·h/mL"}
{"COMPOUND": "CO/N=C(/c1ccc(Br)cc1)C1CCN(C2(C)CCN(C(=O)c3c(C)cccc3C)CC2)CC1", "AUC": "1200 ng·h/mL"}
{"COMPOUND": "CCO/N=C(\\c1ccc(Cl)cc1)C1CCN(C2(C)CCN(C(=O)c3c(C)cc[n+]([O-])c3C)CC2)CC1", "AUC": "1700 ng·h/mL"}
{"COMPOUND": "CCO/N=C(\\c1ccc(Br)cc1)C1CCN(C2(C)CCN(C(=O)c3c(C)cc[n+]([O-])c3C)CC2)CC1", "AUC": "6500 ng·h/mL"}

Given the compound CO/N=C(\c1ccc(Br)cc1)C1CCN(C2(C)CCN(C(=O)c3c(N)cccc3Cl)CC2)CC1 , what is its reported AUC?
620 ng·h/mL

Form field: reported AUC of CCO/N=C(\c1ccc(Br)cc1)C1CCN(C2(C)CCN(C(=O)c3c(C)ccc[n+]3[O-])CC2)CC1
3200 ng·h/mL

---

test system: U-87 MG; assay: Concentration required to inhibit the entry of HIV-1 reporter virus (ADA) into U-87 cells by 50%; type: functional, cell-based, U-87MG ATCC; conditions: Homo sapiens, U-87 MG
Reported values of pIC50 for individual entries
Hey, just a heads up that pIC50 is the negative log base 10 of the concentration in molar.

{"COMPOUND": "CCO/N=C(\\c1ccc(Br)cc1)C1CCN(C2(C)CCN(C(=O)c3c(F)cccc3C(F)(F)F)CC2)CC1", "pIC50": 8.68}
{"COMPOUND": "Cc1cccc(C)c1C(=O)N1CCC(C)(N2CCC(C(O)c3ccc(Br)cc3)CC2)CC1 (configuration not stated)", "pIC50": 7.12}
{"COMPOUND": "Cc1cccc(C)c1C(=O)N1CCC(C)(N2CCC(/C(=N/OC(C)(C)C)c3ccc(Br)cc3)CC2)CC1", "pIC50": 8.24}
{"COMPOUND": "CCO/N=C(\\c1ccc(Br)cc1)C1CCN(C2(C)CCN(C(=O)c3c(C)cccc3C)CC2)CC1", "pIC50": 8.96}
{"COMPOUND": "CCO/N=C(\\c1ccc(Br)cc1)C1CCN(C2(C)CCN(C(=O)c3c(C)cc(O)nc3C)CC2)CC1", "pIC50": 9.05}
{"COMPOUND": "Cc1cccc(C)c1C(=O)N1CCC(C)(N2CCC(Cc3ccc(Cl)cc3)CC2)CC1", "pIC50": 7.64}

Which pIC50 value is on record for CCO/N=C(\c1ccc(Br)cc1)C1CCN(C2(C)CCN(C(=O)c3c(C)ccc[n+]3[O-])CC2)CC1 ?
8.77

I would be grateful if you could share the reported pIC50 for CCO/N=C(/c1ccc(Br)cc1)C1CCN(C2(C)CCN(C(=O)c3c(C)cccc3C)CC2)CC1 .
8.04

Quick check: pIC50 of CO/N=C(\c1ccc(Br)cc1)C1CCN(C2(C)CCN(C(=O)c3c(C)cccc3C)CC2)CC1 (stereo in doubt; 14c (Z)) ?
8.92

Given the entry CO/N=C(/c1ccc(Br)cc1)C1CCN(C2(C)CCN(C(=O)c3c(C)cccc3C)CC2)CC1 , report its measured pIC50.
8.55

// query pIC50 value for entry Cc1cccc(C)c1C(=O)N1CCC(C)(N2CCC(Cc3ccc(OC(F)(F)F)cc3)CC2)CC1
8.30

// returns reported pIC50 for input CO/N=C(\c1ccc(Br)cc1)C1CCN(C2(C)CCN(C(=O)c3c(N)cccc3Cl)CC2)CC1
9.22

Form field: reported pIC50 of CO/N=C(\c1ccc(OC(F)(F)F)cc1)C1CCN(C2(C)CCN(C(=O)c3c(C)cc[n+]([O-])c3C)CC2)CC1
8.29

Quick one: pIC50 for Cc1cccc(C)c1C(=O)N1CCC(C)(N2CCC(/C(=N/OC(C)C)c3ccc(Br)cc3)CC2)CC1 ?
8.77

Can you look up the measured pIC50 of COc1ccc(CC2CCN(C3(C)CCN(C(=O)c4c(C)cccc4C)CC3)CC2)cc1 for me?
7.59

What value of pIC50 has been recorded for this entry: CCO/N=C(\c1ccc(Br)cc1)C1CCN(C2(C)CCN(C(=O)c3c(C)cc(C)nc3O)CC2)CC1
8.19

Entry under review: Cc1ccc(CC2CCN(C3(C)CCN(C(=O)c4c(C)cccc4C)CC3)CC2)cc1 . Reported pIC50?
7.42

---

assay: Plasma clearance after IV administration at the dose 10/10 (IV/Po/mg/kg); format: ADME, organism-based; conditions: 10 mg/kg
MEASUREMENT_KIND: clearance (mL/min/kg)
Unit mL/min/kg implied. Number only.

For the compound shown here, CCO/N=C(\c1ccc(Br)cc1)C1CCN(C2(C)CCN(C(=O)c3c(C)cc[n+]([O-])c3C)CC2)CC1 , give the reported clearance.
12.8

---

Entries annotated with measured AUC
test system: Rattus norvegicus; assay: Area under curve value at 0-6 hr in rat pharmacokinetic screening after 10 mg/kg peroral dose; type: ADME, organism-based; set-up: time < 6 hr, dose 10 mg/kg, route oral; conditions: in vivo, po

Some entries whose results are on file:
{"SMILES_DATA": "Cc1cccc(C)c1C(=O)N1CCC(C)(N2CCC(Cc3ccc(Br)cc3)CC2)CC1", "AUC": "0.04 µg·h/mL"}
{"SMILES_DATA": "Cc1cccc(C)c1C(=O)N1CCC(C)(N2CCC(/C(=N/OC(C)C)c3ccc(Br)cc3)CC2)CC1", "AUC": "1.7 µg·h/mL"}
{"SMILES_DATA": "CO/N=C(\\c1ccc(Br)cc1)C1CCN(C2(C)CCN(C(=O)c3c(C)ccnc3C)CC2)CC1", "AUC": "1.9 µg·h/mL"}
{"SMILES_DATA": "CO/N=C(\\c1ccc(C(F)(F)F)cc1)C1CCN(C2(C)CCN(C(=O)c3c(C)cc[n+]([O-])c3C)CC2)CC1", "AUC": "0.35 µg·h/mL"}
{"SMILES_DATA": "CO/N=C(\\c1ccc(Br)cc1)C1CCN(C2(C)CCN(C(=O)c3c(C)cc[n+]([O-])c3C)CC2)CC1", "AUC": "2.4 µg·h/mL"}

Which AUC value is on record for CO/N=C(\c1ccc(OC(F)(F)F)cc1)C1CCN(C2(C)CCN(C(=O)c3c(C)cc[n+]([O-])c3C)CC2)CC1 ?
3.3 µg·h/mL

Item CCO/N=C(\c1ccc(C(F)(F)F)cc1)C1CCN(C2(C)CCN(C(=O)c3c(C)cc[n+]([O-])c3C)CC2)CC1 has what recorded AUC?
2.2 µg·h/mL

---

assay: T max after oral administration at the dose 10/10 (IV/Po/mg/kg); format: ADME, organism-based; conditions: in vivo, 10 mg/kg
MEASUREMENT_KIND: Tmax (min)
Only the number, expressed in min, is required.

# input molecule: CCO/N=C(\c1ccc(Br)cc1)C1CCN(C2(C)CCN(C(=O)c3c(C)cc[n+]([O-])c3C)CC2)CC1 ; wanted: its Tmax
30

---

assay: Half life (t 1/2) after IV administration at the dose 10/10 (IV/Po/mg/kg); type: ADME, organism-based; conditions: in vivo, 10 mg/kg
MEASUREMENT_KIND: half-life (h)
Field format: number, assumed h, no unit text.

# half-life lookup, item CCO/N=C(\c1ccc(Br)cc1)C1CCN(C2(C)CCN(C(=O)c3c(C)cc[n+]([O-])c3C)CC2)CC1
5.4

---

assay: Percent of bioavailability after oral administration at the dose 10/10 (IV/Po/mg/kg); assay type: ADME, organism-based; settings: in vivo, 10 mg/kg, read-out: Bioavailabiility
MEASUREMENT_KIND: bioavailability (%)
Report the value in % with no unit label.

Return reported bioavailability; argument: CCO/N=C(\c1ccc(Br)cc1)C1CCN(C2(C)CCN(C(=O)c3c(C)cc[n+]([O-])c3C)CC2)CC1 [ANCRIVIROC]
63
